# experiment: Partition coefficient, log P of the compound
# Format: physicochemical
# cond: octanol/water
quantity-kind: logP
I'd appreciate a reply containing only the number, no unit.

Entry `Cc1cc[n+]([O-])c(C)c1C(=O)N1CCC(C)(N2CCC(N(c3ccccc3)c3cccnc3)CC2)CC1` , logP reported as 2.2

====

# experiment: Dissociation constant, pKa of the compound
# Type: physicochemical
quantity-kind: pKa
I'd appreciate a reply containing only the number, no unit.

Entry `Cc1cc[n+]([O-])c(C)c1C(=O)N1CCC(C)(N2CCC(N(c3ccccc3)c3cccnc3)CC2)CC1` , pKa reported as 5.5

Reference for the values: ChEMBL document CHEMBL1141522
